# MEASURED ON: T1, recombinant BACE1 (BACE1 extracellular domain, R&D Systems Cat#931-AS) (UniProt P56817 22-457)
# T1 construct: extracellular domain; also called BACE1 extracellular domain protein
# TEST DETAILS: SPR Biacore T200, IgG captured, BACE1 analyte
READOUT KIND: pKd
Remember, pKd is on a log scale: it is -log10 of the molar concentration.

Answered cases to consult:
BINDER: 4H10 (antibody, human IgG1, V domains shown, chimeric, human IgG1/kappa; also called Clone 4H10) VH: EIQLQQSGPELKKPGETVKISCKTSGYTFTTYGMTWVKQAPGKGLKWMGWINTYSGVPIYADDFKGRSAFSLETSASTAYLQINNLENEDTATYFCARRGSTAHYFDYWGQGTTVTVSS VL: DIVLTQSHKFMSTSVGDRVSITCKASQDVSTAVAWYQQKPGQSPKLLIYWASTRHTGVPDRFTGSGSGTDYTLTISSVQAEDLALYYCQQHYSTPYTFGGGTKLELK
pKd: 7.64
//
BINDER: 3C11 (antibody, human IgG1, V domains shown, chimeric, human IgG1/kappa; also called Clone 3C11) VH: EVQLQQSGADLMKPGASVKLSCKATGYTFTGYWIEWVKQRPGHGLEWIGEIFPGSVSTNYNEKFKGKATFTADTSSNTAYMQLSSLTTEDSAIYYCARSPIYYDYADYWGQGTTLTVSS VL: DIVLSQSHKFMSTSVGDRVSITCKASQDVGTAVAWYQQKPGQSPKALIYLASNRHTGVPDRFTGSGSGTDFTLTISNVQSEDLAEYFCQQYNSYPYTFGGGTRLEIK
pKd: 7.21

We next turn to a different binder, shown below.
Return pKd for the following binder: 2E1 (antibody, human IgG1, V domains shown, chimeric, human IgG1/kappa; also called Clone 2E1) VH: EVQLQQPGTELVRPGTSVKLSCKASGYTFTNFWMHWVKQRPGQGLEWIGVINPSDTYTKFNQKFRGKATLTVDTSSSTAYMQLSSLTSEDSAVYFCARPTVGLDYWGQGTSVTVSS VL: DIVMTQSQKFMPTSVGDRVSVTCKASQNVGSNVAWYQQKSGQSPKALIYSASHRYSGVPDRFTGSGSGTDFTLTISNVQSEDLAEYFCQQYNSYPYTFGGGTKLEIK
7.15
